Readings of growth for the listed compounds
System: NCI-H460 lung
Protocol notes: NCI-60 one-dose screen, 48 h (100 = growth as untreated, 0 = no growth, -100 = all killed)
Condition context: 10 µM unless noted
This is part of a sample that, as a whole, favours compounds with a hit. Of some 83,000 tested, about 20% had one in any assay. Calls of active or inactive are those of the source. How the source made its calls: active means growth percent below 10; inactive means the rest.

>  <Compound>
CCC1S/C(=N\N=C(/C)c2ccco2)N(c2ccccc2)C1=O (stereo not given)

>  <growth>
93.8% (inactive)

$$$$
>  <Compound>
Cn1c(I)c(C#C[Si](C)(C)C)c(=O)[nH]c1=O

>  <growth>
104% (inactive)

$$$$
>  <Compound>
Nc1ccc(S(=O)(=O)Nc2ccnn2-c2ccccc2)cc1

>  <growth>
108% (inactive)

$$$$
>  <Compound>
Cc1cc(NCCN(C(C)C)C(C)C)nc(/N=C(\N)Nc2ccc(Cl)c(C(F)(F)F)c2)n1

>  <growth>
-84.7% (active)

$$$$
>  <Compound>
Cl[C@@H]1CCO[C@H](c2cc3ccccc3c3ccccc23)C1

>  <growth>
99% (inactive)

$$$$
>  <Compound>
CCCCN(CCCC)c1ccc(C(=N)c2ccc(N(C)C)cc2)cc1

>  <growth>
-88.5% (active)

$$$$
>  <Compound>
OCc1cn(-c2ccc(Cl)cc2)nc1-c1ccc(O)cc1

>  <growth>
106% (inactive)

$$$$
>  <Compound>
COc1ccc(-n2c(-c3ccc(NC(=O)CCCl)cc3)nnc2-c2cc(OC)c(OC)c(OC)c2)cc1

>  <growth>
7.54% (active)

$$$$
>  <Compound>
COc1cc(C(=O)NNC(=O)c2ccccc2O)cc(OC)c1OC

>  <growth>
102% (inactive)

$$$$
>  <Compound>
COc1ccccc1S(=O)(=O)Nc1ccc2c3c(cc(-c4cnn(C5CC5)c4)nc13)C(=O)N2C

>  <growth>
66.7% (inactive)

$$$$
